Give GI50 for every item shown.
tested on: OVCAR-3; test: NCI tumour cell line growth inhibition, 48 h
Active and inactive are the calls of the source. Rule as the data show it: active = GI50 up to about 1.1 µM and inactive = higher.

In plain terms, COC(=O)C1=C(O)c2cc(OC)c(OC)c(OC)c2[C@H](c2cc(OC)c(OC)c(OC)c2)C1C(=O)OC (stereo not given in full) has a documented GI50 of 22.9 µM (inactive)

In plain terms, O=P(Nc1ccccc1)(Oc1ccccc1)N(CCCl)CCCl (stereo not given) has a documented GI50 of > 100 µM (inactive)

In plain terms, N#Cc1c(-c2ccc(Cl)cc2)c2c([nH]c1=O)-c1ccccc1SC2 has a documented GI50 of 26.2 µM (inactive)

In plain terms, Cc1cccc(=O)c([O-])c1.Cc1cccc(=O)c([O-])c1.[Bi+3].[Cl-] has a documented GI50 of 2.74 µM (inactive)

In plain terms, CC(=O)NC(CC(C)C)C(=O)NC(CC(C)C)C(=O)NC(C=O)CCCNC(=N)N (stereo not given) has a documented GI50 of > 100 µM (inactive)

In plain terms, COc1ccc(-c2cc3c(nn2)-c2ccccc2C3=O)cc1 has a documented GI50 of > 10 µM (inactive)

In plain terms, CCOC(=O)NC has a documented GI50 of > 100 µM (inactive)

In plain terms, COc1c(O)cc2c(c1O)C(=O)C1=C(CCCC1)C2=O has a documented GI50 of 20.3 µM (inactive)

In plain terms, Nc1nc(Cl)cc(NCC2(O)CC(CO)C2)n1 (stereo not given) has a documented GI50 of > 100 µM (inactive)

In plain terms, C=C1C(=O)OC2/C=C(\C)C(O)CC(O)C(C)(O)CC(OC(=O)/C(C)=C/C)C12 (stereo not given) has a documented GI50 of 44.2 µM (inactive)

----------
system: ACHN; assay: NCI tumour cell line growth inhibition, 48 h
The source made the active and inactive calls. Cut-off read from the data, not from the text of the source: active = GI50 up to about 1.1 µM and inactive = higher.
Select the correct class. Options are active, inactive and nothing else.

Short answer needed: outcome of this test for COc1ccc2c(c1)c1c(C)c3cnccc3c(C)c1n2CCCN ?
active

Short answer needed: outcome of this test for C/C(=N/NC(=S)N1CCN(C(=S)N/N=C(/C)c2ccccn2)CC1)c1ccccn1 ?
inactive

Short answer needed: outcome of this test for COC(=O)c1c(O)ccc2c1c1c(n2C)C(=O)c2ccccc2C1=O ?
inactive

Short answer needed: outcome of this test for O=c1c2cc(S(=O)(=O)O)ccc2nc(COc2ccc(Oc3ccc(Cl)cc3Cl)cc2)n1-c1ccc(Cl)cc1Oc1c(Cl)cccc1Cl ?
inactive

Short answer needed: outcome of this test for CN(C)/C=N\c1cccc2cnccc12 ?
inactive

Short answer needed: outcome of this test for Nc1cc(Cl)ccc1SSc1ccc(Cl)cc1N ?
inactive

Short answer needed: outcome of this test for CC1CC(=O)Nc2ccccc2N1C(=O)CN1CCC(CCCCN(C)C)CC1 (stereo not drawn) ?
inactive

Short answer needed: outcome of this test for Cc1ccc(C(=O)NC2C(=O)NC(C(C)C)C(=O)N3CCCC3C(=O)N(C)CC(=O)N(C)C(C(C)C)C(=O)OC2C)c2c1Oc1c(c(C(=O)NC3C(=O)NC(C(C)C)C(=O)N4CCCC4C(=O)N(C)CC(=O)N(C)C(C(C)C)C(=O)OC3C)c3nc(-c4ccccc4)c(=O)oc3c1C)N2 (stereo not drawn) ?
active

----------
system: 786-0; assay: NCI tumour cell line growth inhibition, 48 h
The source made the active and inactive calls. Rule as the data show it: active = GI50 up to about 1.1 µM and inactive = higher.
Assay Metric: GI50

In plain terms, CCc1nnc(S)n1/N=C\c1ccc(-c2ccccc2Cl)o1 has a documented GI50 of 30.8 µM (inactive)

In plain terms, O=C(O)CC[P+](c1ccccc1)(c1ccccc1)c1ccccc1 has a documented GI50 of 30.6 µM (inactive)

In plain terms, CC(C)C[C@H](NC(=O)[C@H](Cc1ccccc1)NC(=O)CCc1ccccc1)B(O)O has a documented GI50 of < 0.01 µM (active)

In plain terms, C=C1CCc2ccccc2C1=O has a documented GI50 of > 100 µM (inactive)

In plain terms, Oc1c(C(Nc2ccccn2)c2ccccc2)ccc2cccnc12 (centres undefined) has a documented GI50 of 2.76 µM (inactive)

In plain terms, [N-]=[N+]=Nc1ccc2c(c1)Sc1ccccc1N2CCCCN1CCN(Cc2ccc(C(=O)c3ccccc3)cc2)CC1 has a documented GI50 of 5.24 µM (inactive)

In plain terms, CN(C)C(=N)c1ccccc1 has a documented GI50 of > 100 µM (inactive)

In plain terms, CCOC(=O)/C=C/C1(CCOC(C)=O)CCCCC1 has a documented GI50 of > 10 µM (inactive)

In plain terms, COC1(OC)C2(Cl)C(Cl)=C(Cl)C1(Cl)C1C=CC=CC12 (centres undefined) has a documented GI50 of > 100 µM (inactive)

In plain terms, Cc1ccc(S(=O)(=O)NC(=O)NCc2ccc(S(N)(=O)=O)cc2)cc1 has a documented GI50 of > 100 µM (inactive)

In plain terms, Nc1cc(N2CCCC2)nc(=O)n1-c1ccccc1 has a documented GI50 of > 100 µM (inactive)

In plain terms, NC(=O)c1ncn2c1NCC1OC2C(O)C1O (centres undefined) has a documented GI50 of > 100 µM (inactive)

In plain terms, COc1ccc(NC(S)=Nc2cccc(C)n2)cc1 has a documented GI50 of 54 µM (inactive)

In plain terms, [N-]=[N+]=NC(CBr)c1cn([C@H]2C[C@H](O)[C@@H](CO)O2)c(=O)[nH]c1=O (some centres undefined) has a documented GI50 of > 100 µM (inactive)

In plain terms, CCOc1cc(/C=N\N(C)C)cc(/C=N\N(C)C)c1O has a documented GI50 of 42.7 µM (inactive)

In plain terms, CC1OC2=N[C@@H]1C(=O)N[C@@H](C(C)C)C1=N[C@H](C(=O)N[C@@H](C(C)C)C3=N[C@H](C(=O)N[C@@H](C(C)C)C4=N[C@H](C(=O)N[C@H]2C(C)C)C(C)O4)C(C)O3)C(C)O1 (some centres undefined) has a documented GI50 of > 10 µM (inactive)

In plain terms, CCOC(=O)c1cc(C(O)P2(=O)N(CC(C)(C)C)[C@@H]3CCCC[C@H]3N2CC(C)(C)C)cn1C(=O)OC(C)(C)C (some centres undefined) has a documented GI50 of 15.6 µM (inactive)

In plain terms, O=Cc1ccc(-c2cccc([N+](=O)[O-])c2)s1 has a documented GI50 of 80 µM (inactive)

In plain terms, COc1ccc2c(c1O)C(=O)C(CCC(=O)O)CC2 (centres undefined) has a documented GI50 of > 100 µM (inactive)

In plain terms, C[C@@H](N[C@H]1CCC[C@@H]1O)c1ccccc1.C[C@@H](N[C@H]1CCC[C@H]1O)c1ccccc1 has a documented GI50 of 70.1 µM (inactive)

In plain terms, CC1CC(=O)Nc2ccccc2N1C(=O)CN1CCC(CCCCN(C)C)CC1 (centres undefined) has a documented GI50 of > 100 µM (inactive)

In plain terms, O=C1OC(c2ccccc2)=N/C1=C\c1ccc([N+](=O)[O-])cc1 has a documented GI50 of 26.9 µM (inactive)

In plain terms, Cc1ccc(C(=O)NC2C(=O)NC(C(C)C)C(=O)N3CCCC3C(=O)N(C)CC(=O)N(C)C(C(C)C)C(=O)OC2C)c2c1Oc1c(c(C(=O)NC3C(=O)NC(C(C)C)C(=O)N4CCCC4C(=O)N(C)CC(=O)N(C)C(C(C)C)C(=O)OC3C)c3nc(-c4ccccc4)c(=O)oc3c1C)N2 (centres undefined) has a documented GI50 of < 0.001 µM (active)

In plain terms, CC1=C/C(=N\O)C(C(O)(C(F)(F)F)C(F)(F)F)C(C)(C)C1 (centres undefined) has a documented GI50 of > 10 µM (inactive)

In plain terms, O=C1N/C(=N/N=C\c2ccccc2)N/C1=C/c1ccc(Cl)cc1 has a documented GI50 of 29.8 µM (inactive)

In plain terms, COc1ccc2c(c1)CCC/C2=N\NS(=O)(=O)c1c(C)cc(C)cc1C has a documented GI50 of 19.1 µM (inactive)

In plain terms, CCn1c(SCc2nnc(Nc3ccccc3)s2)nc2ccccc2c1=O has a documented GI50 of 2.02 µM (inactive)

In plain terms, N=C(N)/N=C(\N)Nc1cnccn1 has a documented GI50 of > 100 µM (inactive)

In plain terms, Cc1sc2nc3n(c(=O)c2c1C)N=CN(c1ccc(F)cc1)C3 has a documented GI50 of 19.5 µM (inactive)

In plain terms, Cc1cn(CC2=NC3CCCCC3N2)c(=O)[nH]c1=O (centres undefined) has a documented GI50 of > 100 µM (inactive)

In plain terms, CCOC(=O)c1cc2c3c(cc(OC)c2[nH]1)N(C(=O)OCC)CC3 has a documented GI50 of > 100 µM (inactive)

In plain terms, CC(C)CCCC(C)[C@H]1CCC2[C@@H]3CCC4Nc5nocc5C[C@]4(C)C3CC[C@@]21C (some centres undefined) has a documented GI50 of 11.4 µM (inactive)

In plain terms, O=C(CC1Sc2ccccc2NC1=O)Nc1ccc([N+](=O)[O-])cc1[N+](=O)[O-] (centres undefined) has a documented GI50 of 17.9 µM (inactive)

In plain terms, C/C(=C\CO)CC[C@@H]1[C@@]2(C)CCCC(C)(C)[C@@H]2CC[C@@]1(C)O has a documented GI50 of 20.4 µM (inactive)
